Hello, the source for this data is PubChem BioAssay AID2060490, in case you need it.

System: 885512-296-R-J2-PDC complex spheroid viability;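 also: spheroids exposed to the compounds for one week; percent of tumor spheroid viability relative to DMSO vehicle control wells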
Assay: Anticancer human tumor 885512-296-R-J2-PDC patient-derived breast carcinoma cell line growth inhibition [GQUAD]
Conditions: second compound 1 µM; first compound 1 µM; active compounds read low
MEASURE: viability, T/C (%)
One number for each entry, in %.

# COMPOUND, UNIT_TAG, NUMERIC_READOUT
rows = [
    ("CC1COCCN1c1cc(C2(O)CC3CCC(C2)O3)c2cnn(-c3ccn[nH]3)c2n1 (stereo not drawn) + Cc1[nH]c2ccc(F)cc2c1-c1nc2c3cccnc3c3ncccc3c2[nH]1", "%", 3.85),
    ("Nc1ccn(C2OC(CO)C(O)C2(F)F)c(=O)n1 (stereo not drawn) + Cc1cnc(CNC(=O)c2c(=O)c3ccc(N4CCCN(C)CC4)nc3n3c2sc2ccccc23)cn1", "%", 3.31),
    ("Nc1ccn(C2OC(CO)C(O)C2(F)F)c(=O)n1 (stereo not drawn) + CN(C)c1ccc(Nc2c3ccc(NC(=O)CCN4CCCC4)cc3nc3cc(NC(=O)CCN4CCCC4)ccc23)cc1", "%", 2.43),
    ("CC(=O)O[C@H]1C(=O)[C@@]2(C)[C@H]([C@H](OC(=O)c3ccccc3)[C@]3(O)C[C@H](OC(=O)[C@H](O)[C@@H](NC(=O)c4ccccc4)c4ccccc4)C(C)=C1C3(C)C)[C@]1(OC(C)=O)CO[C@@H]1C[C@@H]2O + Cc1cnc(CNC(=O)c2c(=O)c3ccc(N4CCCN(C)CC4)nc3n3c2sc2ccccc23)cn1", "%", 7.14),
    ("C=CC(=O)N1CCN(c2nc(=O)n(-c3c(C)ccnc3C(C)C)c3nc(-c4c(O)cccc4F)c(F)cc23)C(C)C1 (stereo not drawn) + CN(C)c1ccc(Nc2c3ccc(NC(=O)CCN4CCCC4)cc3nc3cc(NC(=O)CCN4CCCC4)ccc23)cc1", "%", 117),
]

Quick batch: viability, T/C for everything below.
1. O=C(c1cc(Cc2n[nH]c(=O)c3ccccc23)ccc1F)N1CCN(C(=O)C2CC2)CC1 + CN(C)c1ccc(Nc2c3ccc(NC(=O)CCN4CCCC4)cc3nc3cc(NC(=O)CCN4CCCC4)ccc23)cc1
2. C#Cc1c(F)ccc2cc(O)cc(-c3ncc4c(N5CC6CCC(C5)N6)nc(OCC56CCCN5CC(F)C6)nc4c3F)c12 (stereo not drawn) + Cc1[nH]c2ccc(F)cc2c1-c1nc2c3cccnc3c3ncccc3c2[nH]1
3. CC(=O)O[C@H]1C(=O)[C@@]2(C)[C@H]([C@H](OC(=O)c3ccccc3)[C@]3(O)C[C@H](OC(=O)[C@H](O)[C@@H](NC(=O)c4ccccc4)c4ccccc4)C(C)=C1C3(C)C)[C@]1(OC(C)=O)CO[C@@H]1C[C@@H]2O + CN(C)c1ccc(Nc2c3ccc(NC(=O)CCN4CCCC4)cc3nc3cc(NC(=O)CCN4CCCC4)ccc23)cc1
4. COc1ccc([C@@H](O)c2cc(-c3ncnc4cc(N5CCOCC5)ccc34)c(F)cc2Cl)nn1 + Cc1[nH]c2ccc(F)cc2c1-c1nc2c3cccnc3c3ncccc3c2[nH]1
5. O=c1[nH]cc(F)c(=O)[nH]1 + CN(C)c1ccc(Nc2c3ccc(NC(=O)CCN4CCCC4)cc3nc3cc(NC(=O)CCN4CCCC4)ccc23)cc1
6. O=C(NO)c1cnc(N2CCN(S(=O)(=O)c3ccc4ccccc4c3)CC2)nc1 + Cc1cnc(CNC(=O)c2c(=O)c3ccc(N4CCCN(C)CC4)nc3n3c2sc2ccccc23)cn1

Result:
1. 152
2. 35.6
3. 3.3
4. 68.7
5. 84
6. 0.1

Quick batch: viability, T/C for everything below.
1. CC1COCCN1c1cc(C2(S(C)(=N)=O)CC2)nc(-c2ccnc3[nH]ccc23)n1 (stereo not drawn) + Cc1cnc(CNC(=O)c2c(=O)c3ccc(N4CCCN(C)CC4)nc3n3c2sc2ccccc23)cn1
2. COc1cccc2c1C(=O)c1c(O)c3c(c(O)c1C2=O)CC(O)(C(=O)CO)CC3OC1CC(N)C(O)C(C)O1 (stereo not drawn) + CN(C)c1ccc(Nc2c3ccc(NC(=O)CCN4CCCC4)cc3nc3cc(NC(=O)CCN4CCCC4)ccc23)cc1

Result:
1. 8.13
2. 8.92
